# PROTOCOL_NOTES: Acute toxicity
# Set-up: species or system male 4-week-old mice
# RECORDED_CONDITIONS: mouse, in vivo, ip; intraperitoneal; mice, groups of 5; 8 days observation
ENDPOINT_LABEL: LD50 at 192 h

LD50 at 192 h lookup needed for O=C(O)c1ccc(O)c(O)c1 [Protocatechuic acid, protocatechuic acid] , thanks. > 400 mg/kg
